- measurement-description: Human pharmacokinetics, healthy subjects, 7.5-hour continuous ascending dose IV infusion
- Assay type: in vivo
- condition-summary: human, in vivo, healthy subjects, infusion rate 9/18/36 ng/kg/min, median, N = 5
measured-quantity: Tmax (h)
Form entry: value (h) — number only.

What does the data say about its Tmax? Entry: H-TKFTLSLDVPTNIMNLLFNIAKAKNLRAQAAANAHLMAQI-NH2 [SEQ ID NO: 1] 7

----------
- measurement-description: Nonclinical pharmacokinetics in cynomolgus monkeys
- condition-summary: female, cynomolgus monkey, in vivo; cyno IV infusion 3 hours, F, 100 ng/kg/min; read-out: CL
measured-quantity: clearance

clearance lookup needed for H-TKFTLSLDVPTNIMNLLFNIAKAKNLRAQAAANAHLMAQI-NH2 [SEQ ID NO: 1] , thanks. 39.1 mL/min/kg

----------
- measurement-description: Nonclinical pharmacokinetics in rats
- Set-up: species or system rat
- condition-summary: female, in vivo; rat IV infusion 3 hours, F, 83.3 ng/kg/min
measured-quantity: AUC(0-inf) (ng·h/mL)
Write the number in ng·h/mL without appending the unit.

Fill in the blank: the reported AUC(0-inf) of H-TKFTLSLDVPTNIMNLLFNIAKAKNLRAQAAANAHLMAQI-NH2 [SEQ ID NO: 1] is ____. 1.47

----------
- measurement-description: Nonclinical pharmacokinetics in rats
- Design: species or system rat
- condition-summary: male, in vivo, 300000 ng/kg; rat IV bolus, M, 300,000 ng/kg; read-out: CL
measured-quantity: clearance (mL/min/kg)
Give the value in mL/min/kg but do not write mL/min/kg after it.

// query clearance value for entry H-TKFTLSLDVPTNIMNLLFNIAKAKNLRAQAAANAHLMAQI-NH2 [SEQ ID NO: 1] 50.1
